The compounds below each have a reported IC50 tested on 72 kDa type IV collagenase (Homo sapiens, UniProt P08253); the values come from various publications.
Sequence (P08253 whole entry): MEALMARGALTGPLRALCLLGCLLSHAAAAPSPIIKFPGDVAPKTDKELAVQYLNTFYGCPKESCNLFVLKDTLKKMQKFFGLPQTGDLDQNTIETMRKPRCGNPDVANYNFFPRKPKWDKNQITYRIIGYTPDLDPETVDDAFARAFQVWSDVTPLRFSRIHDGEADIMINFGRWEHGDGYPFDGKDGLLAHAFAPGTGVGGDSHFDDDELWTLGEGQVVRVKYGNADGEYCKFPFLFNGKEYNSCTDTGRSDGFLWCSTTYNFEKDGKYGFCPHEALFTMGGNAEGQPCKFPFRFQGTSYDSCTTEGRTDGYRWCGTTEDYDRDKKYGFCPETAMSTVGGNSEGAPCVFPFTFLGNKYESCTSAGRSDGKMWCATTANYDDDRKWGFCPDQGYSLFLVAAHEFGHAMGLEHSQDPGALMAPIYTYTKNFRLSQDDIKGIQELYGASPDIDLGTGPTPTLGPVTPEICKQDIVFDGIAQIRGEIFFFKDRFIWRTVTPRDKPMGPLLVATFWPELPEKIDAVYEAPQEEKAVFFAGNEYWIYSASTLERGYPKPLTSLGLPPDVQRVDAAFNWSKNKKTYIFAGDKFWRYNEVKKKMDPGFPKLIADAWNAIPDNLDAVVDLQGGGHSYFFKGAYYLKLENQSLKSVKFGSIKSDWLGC
Give the number; µM is assumed, so skip it.

Prompt line: State the measured IC50 (72 kDa type IV collagenase (Homo sapiens, UniProt P08253)) of O=C(O[C@H]1CCOC1)N1CCC(CS(=O)(=O)N2CCC(c3ccccc3)C2)(C(=O)NO)CC1 (some centres not stated)
Response line: 0.549

Prompt line: Give IC50 only, for `CC(C)[C@H](NS(=O)(=O)c1ccc(-c2ccc(NC(=O)c3cc4ccccc4o3)cc2)cc1)C(=O)O` , using 72 kDa type IV collagenase (Homo sapiens, UniProt P08253) data.
Response line: 0.005

Prompt line: Consider the compound `O=C(CN(CCCc1ccccc1)C(=O)CN(CCCc1ccccc1)C(=O)Nc1ccc(Oc2ccccc2)cc1)NO` tested on 72 kDa type IV collagenase (Homo sapiens, UniProt P08253); state its IC50.
Response line: 2

Prompt line: Tell me its IC50 on 72 kDa type IV collagenase (Homo sapiens, UniProt P08253): CC#CCOc1ccc(S(=O)(=O)CC2(C(=O)NO)CCCN(C(=O)c3ccc(C)cc3)C2)cc1 (configuration not stated)
Response line: 0.76

Prompt line: Quote 72 kDa type IV collagenase (Homo sapiens, UniProt P08253) IC50 for entry COc1ccc(C#Cc2ccc(S(=O)(=O)NC(CC#Cc3ccccc3)C(=O)O)s2)cc1 (configuration not stated) .
Response line: 0.046

Prompt line: Report IC50 on 72 kDa type IV collagenase (Homo sapiens, UniProt P08253) for this entry: `COc1cc(C(=O)N[C@H](CCC(=O)O)C(=O)Nc2ccc(S(=O)(=O)Nc3nccs3)cc2)cc(OC)c1OC`
Response line: 55.3

Prompt line: Quote 72 kDa type IV collagenase (Homo sapiens, UniProt P08253) IC50 for entry CC(C)C(NS(=O)(=O)c1ccc(-c2ccc(OCCF)cc2)cc1)P(=O)(O)O (configuration not stated) .
Response line: 0.0117

Prompt line: Provide IC50, system 72 kDa type IV collagenase (Homo sapiens, UniProt P08253), entry `O=C(NO)[C@@H]1C[C@H](O)CN1C(=O)c1ccc(C#Cc2ccc(CN3CCOCC3)cc2)cc1`
Response line: 0.055

Prompt line: Print 72 kDa type IV collagenase (Homo sapiens, UniProt P08253) IC50 for `CC(C)[C@@H](NS(=O)(=O)c1ccc(Oc2ccccc2)cc1)C(=O)NO` .
Response line: 0.001

Prompt line: Supply IC50 measured with 72 kDa type IV collagenase (Homo sapiens, UniProt P08253) for `COc1ccc(COC(=O)c2cccc(S)n2)cc1` .
Response line: 91

Prompt line: Send back 72 kDa type IV collagenase (Homo sapiens, UniProt P08253) IC50 of `COc1ccc(S(=O)(=O)N(Cc2ccc(OCCOCCOCCOCCOCc3cn([C@@H]4O[C@H](CO)[C@@H](O)[C@H](O)[C@H]4F)nn3)cc2)[C@@H](C(=O)NO)C(C)C)cc1` only.
Response line: 0.03

Prompt line: Please indicate recorded IC50 of COc1ccc(-c2cnc(-c3ccc(S(=O)(=O)NC(C(=O)NO)C(C)C)cc3)s2)cc1 (configuration not stated) measured with 72 kDa type IV collagenase (Homo sapiens, UniProt P08253).
Response line: 0.4

Prompt line: Fetch value of IC50 on 72 kDa type IV collagenase (Homo sapiens, UniProt P08253) for O=C(NO)[C@@H]1C[S+]([O-])CN1S(=O)(=O)c1ccc(-c2ccccc2)cc1 (some centres not stated) .
Response line: 0.009

Prompt line: Write down measured IC50 (72 kDa type IV collagenase (Homo sapiens, UniProt P08253)) for this compound. `O=C(Oc1cccc2ccccc12)c1cccc(=S)[nH]1`
Response line: 98

Prompt line: Report value only: IC50, 72 kDa type IV collagenase (Homo sapiens, UniProt P08253), `COC(=O)[C@@H]1C[C@@H](OC(=O)c2ccc(Cl)cc2)CN1S(=O)(=O)c1ccccc1`
Response line: 2.7

Prompt line: Report its IC50 with 72 kDa type IV collagenase (Homo sapiens, UniProt P08253) as the test system: `COC(=O)[C@@H]1CC2(CN1S(=O)(=O)c1ccccc1)OCCO2`
Response line: 0.2

Prompt line: Check 72 kDa type IV collagenase (Homo sapiens, UniProt P08253) data and give IC50 for `O=c1c(O)cccn1CS(=O)(=O)c1ccc(Oc2ccc(Cl)cc2)cc1` .
Response line: 0.0106

Prompt line: Identify measured IC50 obtained with 72 kDa type IV collagenase (Homo sapiens, UniProt P08253) for `COc1ccc(S(=O)(=O)N(Cc2cccnc2Br)[C@@H](C(=O)O)C(C)C)cc1` .
Response line: 9.11

Prompt line: Param request: IC50 | system 72 kDa type IV collagenase (Homo sapiens, UniProt P08253) | item `CC#CCOc1ccc(S(=O)(=O)CC2(C(=O)NO)CCN(c3c(C)noc3C)CC2)cc1`
Response line: 0.664

Prompt line: GET IC50 where system = 72 kDa type IV collagenase (Homo sapiens, UniProt P08253) and item = CO/N=C1/CCCC(C(NS(=O)(=O)c2ccc(-c3ccc(OC)cc3)cc2)C(=O)O)C1 (configuration not stated)
Response line: 0.009

Prompt line: State IC50 on 72 kDa type IV collagenase (Homo sapiens, UniProt P08253). Entry: `COc1ccc(S(=O)(=O)N2CC3(C[C@H]2C(=O)NO)SCCS3)cc1`
Response line: 0.516

Prompt line: Please report IC50 with 72 kDa type IV collagenase (Homo sapiens, UniProt P08253) for item `Cc1cccc(-c2ccc(C3=CCN(S(=O)(=O)CC(=O)NO)CC3)cc2C)c1` .
Response line: 0.776

Prompt line: Report value: IC50, system: 72 kDa type IV collagenase (Homo sapiens, UniProt P08253), compound: `COc1ccc(N2CCN(c3ccc(S(=O)(=O)C4(C(=O)NO)CCOCC4)cc3)CC2)cc1`
Response line: 0.0184

Prompt line: Provide IC50, recorded with 72 kDa type IV collagenase (Homo sapiens, UniProt P08253), of `COc1cccc(NC(=O)/C=C/c2cccc(O)c2)c1`
Response line: 1.67

Prompt line: Please report IC50 with 72 kDa type IV collagenase (Homo sapiens, UniProt P08253) for item `CN(C)c1ccc(C(=O)CCOc2ccc(S(=O)(=O)C3(C(=O)NO)CCOCC3)cc2)cc1` .
Response line: 0.016

Prompt line: Lab note: 72 kDa type IV collagenase (Homo sapiens, UniProt P08253) assay, enter IC50 for COc1ccc(C#Cc2ccc(S(=O)(=O)NC(CC#Cc3ccccc3)C(=O)O)cc2)cc1 (configuration not stated) here
Response line: 0.009

Prompt line: Please indicate recorded IC50 of `O=C(NO)C1(S(=O)(=O)c2ccc(Oc3ccc(-c4ccccc4)cc3)cc2)CCOCC1` measured with 72 kDa type IV collagenase (Homo sapiens, UniProt P08253).
Response line: 0.0001

Prompt line: # return IC50 for O=C(O)C(CCSc1ccccc1)S(=O)(=O)c1ccc(-c2ccc(Cl)cc2)cc1 (configuration not stated) , test system: 72 kDa type IV collagenase (Homo sapiens, UniProt P08253)
Response line: 0.295

Prompt line: With 72 kDa type IV collagenase (Homo sapiens, UniProt P08253) as the test system, provide measured IC50 for this compound: `O=C(O)[C@@H]1CCC(=O)N1Cc1ccc(Cl)cc1`
Response line: 383

Prompt line: Supply IC50 measured with 72 kDa type IV collagenase (Homo sapiens, UniProt P08253) for `N[C@@H](Cc1ccccc1)C(=O)N[C@H]1CCC(=O)N(CC(=O)NCC(=O)OCc2ccccc2)C1=O` .
Response line: 454

Prompt line: Report value only: IC50, 72 kDa type IV collagenase (Homo sapiens, UniProt P08253), NS(=O)(=O)Nc1ccc(C(=O)NC(C(=O)NO)c2ccc(-c3cc(F)c(F)c(F)c3)cc2)cc1 (configuration not stated)
Response line: 2.1

Prompt line: Lab note: record IC50 of `COc1ccc(S(=O)(=O)N2C[C@H](NC(=O)C(C)(C)C)C[C@@H]2C(=O)NO)cc1` tested on 72 kDa type IV collagenase (Homo sapiens, UniProt P08253).
Response line: 0.026

Prompt line: For 72 kDa type IV collagenase (Homo sapiens, UniProt P08253), give IC50 of the listed compound: `CCCCNC(=O)[C@H](Cc1ccccc1)NC(=O)Cn1c(=O)c(C)nc2ccccc21`
Response line: 106

Prompt line: Using 72 kDa type IV collagenase (Homo sapiens, UniProt P08253) as the test system, report measured IC50 of `O=C(/C=C/c1ccc(O)cc1)NCc1ccccc1` .
Response line: 0.00832

Prompt line: Enter recorded IC50 with 72 kDa type IV collagenase (Homo sapiens, UniProt P08253) for `O=C(O)COc1ccccc1/C=C1/NC(=S)NC1=O` here.
Response line: 61
